Listed binders paired with reported binding signal (flow cytometry, %)
- system: T1, protein A56 of the oncolytic virus WOTS-418 (vaccinia virus (WOTS-418, Western …, UniProt Q01218 17-314))
- T1 construct: also called WOTS-418-A56; protein A56 variant
- procedure_details: flow cytometry, PC3 cells treated with WOTS-418 (overlay, FIG. 75)

Before answering, review these 4 worked examples.
>>> value("A56-02C06 (Ab18) (antibody, V domains shown) VH: QVQLVESGGGLVQPGKSLRLSCAASGFTFSTYGMTWVRQAPGKGLEWVSGISGGGSSTNYADSVKGRFIISRDNSNNTLYLQMNSLRAEDTAVYYCARWGVMLSFDYWGQGTPVTVSS VL: DIQMTQSPSTLPASVGDRVTITCRASYSVSPWLAWYQQKPGKAPKLLIYKASTLESGVPSRFSGSGSGTEFTLTISSLQPDDFATYYCQQFNSYMMYTFGQGTKLEIK")
"≥ 60%"
>>> value("A56-01F12 (Ab08) (antibody, V domains shown) VH: QVQLVESGGEVKKPGSSVKVSCKASGGSFSTYAISWVRQAPGQGLEWMGRIIPISDIRNYAQKFQGRVTLTADRATSTAYMELSSLRSEDTAVYYCAKGGRLLSTHFDYWGQGTLVTVSS VL: QLVLTQPPSVSAAPGQKVTISCSGSSSNIGNNYVSWYQQLPGTAPKLLIYDDDKRPSGIPDRFSGSKSGTSATLGITGLQTGDEADYYCGTWHSGLSAGVVFGGGTKLTVL")
"≥ 60%"
>>> value("A56-35G07 (Ab51) (antibody, V domains shown) VH: QMQLVQSGAEVRKPGSSVKVSCKASGDTFSSYAVSWVRQAPGLGLEWMGRTIPRLGATSYAQNFQGRVSITADKSTNTVYMELSGLRSEDTAVYYCARYIPLVRGVRQPRDDFEIWGPGTMITVSS VL: DIQMTQSPGTLSLSPGERATLSCRASQSVSSSYLAWYQQKPGQAPRLLIYGASSRATGIPDRFSGSGSGTDFTLTISSLEPEDFAVYYCQHRKSWPPGATFGQGTRLEIK")
"≥ 60%"
>>> value("A56-01A04 (Ab03) (antibody, V domains shown) VH: QVQLVESGAEVKKPGSSVKVSCKASGGTFSYRYLHWVRQASGQALEWMGWITPFNGYTNYAQKFQDRVTITRDRSMSTAYMELSSLRSEDTAVYYCVTGLGKTNLDSWGQGTLVTVSS VL: DIVMTQTPLSSPVTLGQPASISCRSSQSLVHSNGNTYLSWLQQRPGQPPRLLIYQISKRFSGVPDRFSGSGAGTDFTLKISRVEAEDVGVYYCMQLTQFPLTFGGGTKVEIK")
"≥ 60%"

// next item, binding signal (flow cytometry, %) requested
binding signal (flow cytometry, %) recorded for this binder, A56-44G01 (Ab55) (antibody, V domains shown) VH: QVQLVESGGGVVQPGRSLRLSCAASGFTFSSYAMHWVRQAPGKGLEWVAVISYDGSNKYYADSVKGRFTISRDNSKNTLYLQMNSLRAEDTAVYYCAKDLWGRVGALVGALDLWGQGTMITVSS VL: SYELTQGPSLSVSPGQTANIICSGDNLRTKYVSWYQQKPGQSPILVIYQDTRRPSGIPARFSGSNSGNTATLTISGTQAMDEADYYCQAWDSGNYVFGTGTKVTVL , is ≥ 60%
